target: HPK1 (Homo sapiens, UniProt Q92918); assay: HPK1 Biochemical Assay (ADP-Glo luminescence; low ATP 10 μM or high ATP 200 μM); conditions: HPK1 ADP-Glo assay, high ATP (200 μM ATP, 5 nM HPK1); read-out: Biochemical Potency (high ATP)
Sequence (Q92918 whole entry, species assumed): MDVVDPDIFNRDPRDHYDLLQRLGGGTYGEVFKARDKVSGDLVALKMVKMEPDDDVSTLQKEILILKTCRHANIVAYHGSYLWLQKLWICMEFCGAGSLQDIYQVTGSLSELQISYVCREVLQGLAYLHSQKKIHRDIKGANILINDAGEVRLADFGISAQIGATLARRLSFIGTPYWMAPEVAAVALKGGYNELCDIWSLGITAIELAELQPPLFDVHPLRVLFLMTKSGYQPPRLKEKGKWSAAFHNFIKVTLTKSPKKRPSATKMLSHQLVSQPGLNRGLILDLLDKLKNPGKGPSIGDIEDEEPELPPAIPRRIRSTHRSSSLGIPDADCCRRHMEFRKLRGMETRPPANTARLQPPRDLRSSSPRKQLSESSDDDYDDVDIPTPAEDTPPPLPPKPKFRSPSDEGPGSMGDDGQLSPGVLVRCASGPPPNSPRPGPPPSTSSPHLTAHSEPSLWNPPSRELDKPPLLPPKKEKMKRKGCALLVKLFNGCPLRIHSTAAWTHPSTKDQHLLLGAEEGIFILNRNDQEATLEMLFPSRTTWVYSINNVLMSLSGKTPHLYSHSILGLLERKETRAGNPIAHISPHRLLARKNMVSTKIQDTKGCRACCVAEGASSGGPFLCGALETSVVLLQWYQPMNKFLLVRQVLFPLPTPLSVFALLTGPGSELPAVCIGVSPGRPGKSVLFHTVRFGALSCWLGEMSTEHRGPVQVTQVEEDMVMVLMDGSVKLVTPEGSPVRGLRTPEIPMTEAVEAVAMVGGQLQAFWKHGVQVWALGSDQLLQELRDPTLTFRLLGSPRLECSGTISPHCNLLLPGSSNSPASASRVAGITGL
What IC50 was measured for each of the following?

Item: CN1C[C@@H]2C[C@H]1CN2c1cncc(Nc2cc3nc(-c4cccc(C(C)(O)C(F)(F)F)c4)sc3cn2)n1 (stereo partly drawn) | IC50: < 100 nM

Item: Cc1cccnc1-c1nc2cc(Nc3cc(C(C)(C)O)nc(N4C[C@@H]5C[C@H]4CN5C)n3)ncc2s1 | IC50: < 100 nM

Item: Cc1cc(Nc2cc3nc(-c4cccc5c4CN(C)C5=O)sc3cn2)nc(N2C[C@@H]3C[C@H]2CN3C)n1 | IC50: < 100 nM

Item: Cc1cc(Nc2cc3nc(-c4ccc5c(c4)S(=O)(=O)N(C)C5)sc3cn2)nc(N2C[C@@H]3C[C@H]2CN3C)n1 | IC50: 100 to 1000 nM

Item: CCN1C[C@@H]2C[C@H]1CN2c1nc(C)cc(Nc2cc3nc(-c4cccc(C(=O)N(C)C5CCN(C(C)=O)CC5)c4)sc3cn2)n1 | IC50: 100 to 1000 nM

Item: CCN1C[C@@H]2C[C@H]1CN2c1nc(C)cc(Nc2cc3nc(-c4cccc(C(=O)N[C@@H](C)C5CC5)c4)sc3cn2)n1 | IC50: < 100 nM

----------
target: UniProtKB Q92918; experiment: HPK1 Biochemical Assay (ADP-Glo luminescence; low ATP 10 μM or high ATP 200 μM); conditions: HPK1 ADP-Glo assay, high ATP (200 μM ATP, 5 nM HPK1); read-out: Biochemical Potency (high ATP)
observation_type: IC50

Item: Cc1cc(Nc2cc3nc(-c4ncc(C)o4)sc3cn2)nc(N2C[C@@H]3C[C@H]2CN3C)n1 [Example 373] | IC50: < 100 nM

Item: CCN1C[C@@H]2C[C@H]1CN2c1nc(C)cc(Nc2cc3nc(-c4cccc(C(=O)N5CCCOCC5)c4)sc3cn2)n1 [Example 531] | IC50: < 100 nM

Item: CC(=O)N1CCC(n2cc(-c3nc4cc(Nc5cc(C)nc(N6C[C@@H]7C[C@H]6CN7C)n5)ncc4s3)cn2)CC1 [Example 571] | IC50: 100 to 1000 nM

Item: Cc1cc(Nc2cc3nc(-c4cccc(C(=O)N(C)[C@H]5CCOC5)c4)sc3cn2)nc(N2C[C@@H]3C[C@H]2CN3CCO)n1 [Example 555] | IC50: < 100 nM

Item: Cc1cc(Nc2cc3nc(-c4ccnc(N5CCOCC5)c4)sc3cn2)nc(N2C[C@@H]3C[C@H]2CN3CCO)n1 [Example 458] | IC50: < 100 nM

Item: Cc1cc(Nc2cc3nc(-c4cnn5ccccc45)sc3cn2)nc(N2C[C@@H]3C[C@H]2CN3C)n1 [Example 386] | IC50: < 100 nM

Item: Cc1cc(Nc2cc3nc(-c4cccnc4)sc3cn2)nc(N2C[C@@H]3C[C@H]2CN3Cc2ccccc2)n1 [Example 490] | IC50: < 100 nM

Item: CCc1cc(C(=O)N(C)C)cc(-c2nc3cc(Nc4cc(C)nc(N5C[C@@H]6C[C@H]5CN6CCO)n4)ncc3s2)c1 [Example 546] | IC50: < 100 nM

Item: Cc1cc(Nc2cc3nc(-c4cccc(C(=O)NC5CCCC5)c4)sc3cn2)nc(N2C[C@@H]3C[C@H]2CN3CCO)n1 [Example 545] | IC50: < 100 nM

Item: CCN1C[C@@H]2C[C@H]1CN2c1nc(C)cc(Nc2cc3nc(-c4cccc(S(=O)(=O)C5CC5)c4)sc3cn2)n1 [Example 340] | IC50: < 100 nM

Item: Cc1cc(Nc2cc3nc(-c4ccnc(N5C[C@@H](C)O[C@@H](C)C5)c4)sc3cn2)nc(N2C[C@@H]3C[C@H]2CN3CCO)n1 [Example 445] | IC50: < 100 nM

Item: CCN1C[C@@H]2C[C@H]1CN2c1nc(C)cc(Nc2cc3nc(-c4cccc(S(=O)(=O)CC(C)C)c4)sc3cn2)n1 [Example 339] | IC50: < 100 nM

Item: Cc1cc(Nc2cc3nc(-c4cccc(C(=O)N(C)C)c4)sc3cn2)nc(N2C[C@@H]3C[C@H]2CN3CCN(C)S(C)(=O)=O)n1 [Example 498] | IC50: 100 to 1000 nM
